Reference source: the Kinase Knowledgebase extract (Sharma et al. 2016)

# reported IC50; entries follow
Target: MAPK14 (human)

| Smiles | Reported Metric | Meas Value |
| --- | --- | --- |
| Cc1cc(OCc2ccc(F)cc2F)c(Br)c(=O)n1-c1cc(CO)ccc1Cl | IC50 | < 1000 nM |

Query: Query (compound): Cc1ccc(CN(C)C)cc1-n1c(C)cc(OCc2ccc(F)cc2F)c(Br)c1=O ; field requested: IC50
Reply: 1000 to 25000 nM

Query: Now this one: CNC(=O)c1ccc(-n2c(C)cc(OCc3ccc(F)cc3F)c(Br)c2=O)cc1
Reply: > 100000 nM

Query: Now this one: Cc1cc(OCc2ccc(F)cc2F)c(Br)c(=O)n1-c1cccc(CNS(C)(=O)=O)c1
Reply: 1000 to 25000 nM
